target: SWI/SNF-related matrix-associated actin-dependent regulator of chromatin subfamily A member 4 (Homo sapiens, UniProt P51532); assay: Binding affinity to human partial length SMARCA4 expressed in bacterial expression system by BROMOscan assay
Sequence (P51532 whole entry): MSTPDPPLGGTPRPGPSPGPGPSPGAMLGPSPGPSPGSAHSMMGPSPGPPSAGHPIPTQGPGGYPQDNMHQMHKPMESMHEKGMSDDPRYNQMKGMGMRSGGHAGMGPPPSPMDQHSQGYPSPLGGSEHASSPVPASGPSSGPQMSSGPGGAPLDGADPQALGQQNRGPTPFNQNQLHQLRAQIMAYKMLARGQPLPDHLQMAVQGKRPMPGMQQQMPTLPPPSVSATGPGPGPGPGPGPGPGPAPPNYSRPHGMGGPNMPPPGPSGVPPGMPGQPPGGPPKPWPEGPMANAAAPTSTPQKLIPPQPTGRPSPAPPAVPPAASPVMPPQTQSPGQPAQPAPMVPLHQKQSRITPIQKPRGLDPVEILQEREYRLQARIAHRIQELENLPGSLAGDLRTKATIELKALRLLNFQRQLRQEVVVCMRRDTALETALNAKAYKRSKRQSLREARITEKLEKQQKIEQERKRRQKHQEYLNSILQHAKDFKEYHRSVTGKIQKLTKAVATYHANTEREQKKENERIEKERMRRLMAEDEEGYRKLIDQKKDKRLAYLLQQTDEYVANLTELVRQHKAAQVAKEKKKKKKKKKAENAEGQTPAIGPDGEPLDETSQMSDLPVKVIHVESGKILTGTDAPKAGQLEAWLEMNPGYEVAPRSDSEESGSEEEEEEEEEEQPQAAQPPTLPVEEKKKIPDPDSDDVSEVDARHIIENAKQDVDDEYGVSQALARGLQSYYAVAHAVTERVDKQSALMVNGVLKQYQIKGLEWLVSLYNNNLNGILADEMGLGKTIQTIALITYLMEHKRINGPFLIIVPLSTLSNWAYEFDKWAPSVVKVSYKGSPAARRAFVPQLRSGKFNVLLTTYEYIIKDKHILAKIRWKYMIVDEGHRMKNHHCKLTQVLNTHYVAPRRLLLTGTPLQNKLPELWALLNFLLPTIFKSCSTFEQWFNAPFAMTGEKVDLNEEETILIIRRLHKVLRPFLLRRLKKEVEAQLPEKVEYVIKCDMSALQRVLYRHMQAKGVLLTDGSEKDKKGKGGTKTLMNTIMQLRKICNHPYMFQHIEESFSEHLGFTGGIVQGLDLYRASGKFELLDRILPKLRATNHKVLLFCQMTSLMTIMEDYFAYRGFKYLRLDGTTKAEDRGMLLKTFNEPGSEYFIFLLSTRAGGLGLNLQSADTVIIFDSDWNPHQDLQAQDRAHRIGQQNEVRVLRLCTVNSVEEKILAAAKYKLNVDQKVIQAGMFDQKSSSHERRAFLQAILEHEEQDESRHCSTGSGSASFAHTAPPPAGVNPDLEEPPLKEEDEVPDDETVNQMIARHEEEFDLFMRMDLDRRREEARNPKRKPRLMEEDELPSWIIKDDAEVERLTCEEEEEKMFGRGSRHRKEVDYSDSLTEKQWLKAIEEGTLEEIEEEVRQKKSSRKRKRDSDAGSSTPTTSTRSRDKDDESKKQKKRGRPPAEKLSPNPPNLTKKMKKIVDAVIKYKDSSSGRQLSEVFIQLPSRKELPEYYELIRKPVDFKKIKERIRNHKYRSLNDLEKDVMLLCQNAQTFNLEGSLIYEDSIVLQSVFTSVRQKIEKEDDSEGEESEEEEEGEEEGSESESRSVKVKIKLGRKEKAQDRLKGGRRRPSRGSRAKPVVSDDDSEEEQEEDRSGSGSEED
endpoint: Kd (µM)
Record the value in µM, omitting the unit from your answer.

Task: What does the data say about its Kd? Entry: `CN(C)C(=O)c1cccc(-c2cn(C)c(=O)c3[nH]ccc23)c1`
Result: 9

====

Molecular target: Peregrin (Homo sapiens, UniProt P55201)
Sequence (P55201 whole entry): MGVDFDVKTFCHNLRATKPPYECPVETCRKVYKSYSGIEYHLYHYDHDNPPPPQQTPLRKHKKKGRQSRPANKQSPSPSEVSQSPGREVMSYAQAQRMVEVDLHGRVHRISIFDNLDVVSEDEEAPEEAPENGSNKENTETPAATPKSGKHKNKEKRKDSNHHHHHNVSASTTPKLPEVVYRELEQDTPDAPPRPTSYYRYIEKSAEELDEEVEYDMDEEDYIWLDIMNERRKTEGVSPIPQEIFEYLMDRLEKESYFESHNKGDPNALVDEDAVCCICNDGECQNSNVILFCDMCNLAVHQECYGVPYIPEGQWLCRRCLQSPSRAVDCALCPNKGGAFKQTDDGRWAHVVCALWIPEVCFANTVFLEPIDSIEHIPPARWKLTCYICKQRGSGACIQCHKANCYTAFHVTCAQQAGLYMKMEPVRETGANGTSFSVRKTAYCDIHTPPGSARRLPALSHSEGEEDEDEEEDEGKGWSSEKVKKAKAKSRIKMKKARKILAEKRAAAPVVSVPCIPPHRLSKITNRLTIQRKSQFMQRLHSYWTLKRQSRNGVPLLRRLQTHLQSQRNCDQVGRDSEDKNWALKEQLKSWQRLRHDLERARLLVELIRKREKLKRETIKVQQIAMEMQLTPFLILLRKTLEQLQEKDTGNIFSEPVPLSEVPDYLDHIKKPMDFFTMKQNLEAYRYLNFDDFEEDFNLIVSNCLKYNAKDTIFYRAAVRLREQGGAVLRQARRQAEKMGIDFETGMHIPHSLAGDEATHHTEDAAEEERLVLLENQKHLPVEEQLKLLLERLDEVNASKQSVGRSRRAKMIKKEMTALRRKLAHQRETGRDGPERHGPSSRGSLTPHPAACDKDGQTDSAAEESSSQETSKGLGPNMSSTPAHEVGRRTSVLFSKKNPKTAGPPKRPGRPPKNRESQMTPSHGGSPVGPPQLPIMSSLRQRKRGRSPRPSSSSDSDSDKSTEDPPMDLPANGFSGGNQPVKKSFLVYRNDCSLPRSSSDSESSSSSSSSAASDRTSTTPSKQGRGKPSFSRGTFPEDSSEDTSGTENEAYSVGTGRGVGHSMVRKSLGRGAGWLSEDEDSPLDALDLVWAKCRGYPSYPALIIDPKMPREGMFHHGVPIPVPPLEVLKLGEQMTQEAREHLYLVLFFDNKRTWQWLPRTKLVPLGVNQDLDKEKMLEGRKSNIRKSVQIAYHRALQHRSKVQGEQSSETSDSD
Assay: Displacement of biotinylated JQ1 analog from recombinant His-tagged BRPF1 (unknown origin) incubated for 10 mins by TR-FRET assay
endpoint: IC50 (µM)
Record the value in µM, omitting the unit from your answer.

compound_structure=Cn1ccc2cc[nH]c2c1=O endpoint=IC50 reading=53.8

Task: What does the data say about its IC50? Entry: `CN(C)C(=O)c1cccc(-c2cn(C)c(=O)c3[nH]ccc23)c1`
Result: 1.5
